measured-target: full-length human ERβ (Homo sapiens, UniProt Q92731)
Sequence (Q92731 whole entry): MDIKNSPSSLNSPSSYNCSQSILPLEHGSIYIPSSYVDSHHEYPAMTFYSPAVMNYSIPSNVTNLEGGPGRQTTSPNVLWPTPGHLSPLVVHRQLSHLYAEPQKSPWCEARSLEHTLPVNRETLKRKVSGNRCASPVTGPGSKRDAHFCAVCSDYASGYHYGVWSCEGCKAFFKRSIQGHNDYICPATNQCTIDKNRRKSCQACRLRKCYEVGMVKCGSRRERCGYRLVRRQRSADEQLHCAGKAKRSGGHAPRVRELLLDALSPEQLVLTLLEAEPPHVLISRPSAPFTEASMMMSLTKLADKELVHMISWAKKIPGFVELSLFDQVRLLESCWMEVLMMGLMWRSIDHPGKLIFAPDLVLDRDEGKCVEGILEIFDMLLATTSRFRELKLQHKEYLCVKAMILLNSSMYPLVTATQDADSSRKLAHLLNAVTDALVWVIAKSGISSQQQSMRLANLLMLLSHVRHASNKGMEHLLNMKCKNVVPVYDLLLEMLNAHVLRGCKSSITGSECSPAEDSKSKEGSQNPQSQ

{"compound": "O=S(=O)(Oc1ccccc1Cl)C1CC2OC1C(c1ccc(O)cc1)=C2c1ccc(O)cc1 (stereo not shown)", "IC50": "> 10 µM"}

----------
Each entry below lists one item and its recorded Agonist mode MCF-7 (% E2) value.
System: ERα+ MCF-7 cells
assay-context: ERα+ MCF-7 cells with ERE reporter; average efficacy (mean ± s.e.m.) as percentage of 10^−5 M 17β-estradiol

{"molecule": "O=S(=O)(Oc1cccc2ccccc12)C1CC2OC1C(c1ccc(O)cc1)=C2c1ccc(O)cc1 (centres unmarked)", "measured-target": "ERα+ MCF-7 cells", "Agonist mode MCF-7 (% E2)": "−4 ± 1 % E2"}
{"molecule": "O=S(=O)(Oc1ccccc1Cl)C1CC2OC1C(c1ccc(O)cc1)=C2c1ccc(O)cc1 (centres unmarked)", "measured-target": "ERα+ MCF-7 cells", "Agonist mode MCF-7 (% E2)": "−7 ± 2 % E2"}
{"molecule": "CC/C(=C(\\c1ccc(O)cc1)c1ccc(OCCN(C)C)cc1)c1ccccc1 [Compound 4-OHT, 4-hydroxytamoxifen, reference compound]", "measured-target": "ERα+ MCF-7 cells", "Agonist mode MCF-7 (% E2)": "−11 ± 1 % E2"}
{"molecule": "C[C@]12CC[C@@H]3c4ccc(O)cc4C[C@@H](CCCCCCCCC[S+]([O-])CCCC(F)(F)C(F)(F)F)[C@H]3[C@@H]1CC[C@@H]2O (some centres unmarked) [Faslodex, reference compound]", "measured-target": "ERα+ MCF-7 cells", "Agonist mode MCF-7 (% E2)": "−4 ± 4 % E2"}
{"molecule": "O=S(=O)(Oc1ccccc1)[C@H]1C[C@H]2O[C@@H]1C(c1ccc(O)cc1)=C2c1ccc(O)cc1", "measured-target": "ERα+ MCF-7 cells", "Agonist mode MCF-7 (% E2)": "21 ± 4 % E2"}

Values from paper PMC4301955
